TARGET_OF_ASSAY: T1, SARS-COV-2 RBD (SARS-COV-2, UniProt P0DTC2 319-539)
T1 construct: also called WT RBD
MEASUREMENT_NOTES: ELISA, RBD coated
MEASURED_PARAMETER: EC50 (ng/mL)
Response body: numeric value in ng/mL, unit text excluded.

Before answering, review these 2 worked examples.
Input line: Which EC50 is reported for this binder? C844 (antibody, V domains shown, IgG; V domains only) VH: EVQLVESGGGLVKPGGSLRLSCVATGFSFSDAWMNWVRQAPGKGLEWVGRIRSEIADGTTDYAAPVKGRFTISRDDARNTLYLQMNSLEIEDTAVYYCTTGVVVVVSSSPDDAFDVWGQGTMVTVSS VL: DIQMTQSPSSLSASVGDRVTITCRASQSIGHYLNWYQQKPGKAPKLLIYAASSLQSGVPSRFSGSGSGAGFTLTVNGLQPEDLATYYCQQYYTTPPTFGQGTKVEIK
Output line: 1.53

Input line: Entry C894 (antibody, V domains shown, IgG; V domains only) VH: EVQLVQSGAEVKKPGESLRISCKGSGYSFTGYWISWVRQMPGKGLEWMGRIDPSDSYTNYSPSFEGHVTFSADTALSTAYLQWSSLQASDTAIYFCGRIAPPGRGSYYPTQNYMDVWGKGTTVTVSS VL: EIVLTQSPGTLSLSPGERATLSCTADQSVPNSYLAWYQHKPGQAPRLLIYGASSRATGIPDRFSGSGSGIDFTLTISRLEPEDFAVYYCQQYGSLLLTFGGGTKVEIK please
Output line: 16.8

Now look at this entry.
Input line: Reported EC50, binder C848 (antibody, V domains shown, IgG; V domains only) VH: QVQLQESGPGLVKPSQTLSLTCTVSGGSISSGDYYWSWIRQPPGKGLEWIGYIYYTGITYYRPSLKSRVTISVDTSKNQFSLKLSSVTAADTAVFYCARVVRLWPRYFDSWGQGTLVTVSS VL: QSALTQPPSASGSPGQSVTISCTGTSSDVGTYDYVSWYQQHPGKAPKVIIYEVTKRPSGVPDRFSGSKSGNTASLTVSGLQAEDEAHYYCSTYAGSDNLEFGGGTKLTVL : ____
Output line: 2.23
